B1: Twister Ribozyme (parent)
chain: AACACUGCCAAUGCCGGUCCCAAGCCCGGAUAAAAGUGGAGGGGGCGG

- Variants of: B1
- assay-explanation: self-cleavage, relative activity (ratio to wild type); higher = more cleavage; co-transcriptional
Consider the following variants; for each one, report its self-cleavage.
Give bare numbers.

Below, each entry is followed by its recorded self-cleavage result.
- mutant: "C5U G7A"
  reported-endpoint: "self-cleavage"
  result-value: 0.147
- mutant: "A1C C20A"
  reported-endpoint: "self-cleavage"
  result-value: 0.104
- mutant: "A4U A35U"
  reported-endpoint: "self-cleavage"
  result-value: 0.196

Please state self-cleavage for every variant in the list that follows.
1. C14U A35G
2. A11U C15G
3. C25U A40U

Result:
1. 0.917
2. 0.0907
3. 0.0985
